Provide the recorded Kd for the entries that follow.
Molecular target: T1, wild-type human CLDN-5 protein (human, UniProt O00501 1-218)
T1 construct: Four-transmembrane tight junction protein expressed by retrovirus on HT-1080 (or MDCKII) cells; also called hCLDN-5; human Claudin-5 protein
T1 sequence: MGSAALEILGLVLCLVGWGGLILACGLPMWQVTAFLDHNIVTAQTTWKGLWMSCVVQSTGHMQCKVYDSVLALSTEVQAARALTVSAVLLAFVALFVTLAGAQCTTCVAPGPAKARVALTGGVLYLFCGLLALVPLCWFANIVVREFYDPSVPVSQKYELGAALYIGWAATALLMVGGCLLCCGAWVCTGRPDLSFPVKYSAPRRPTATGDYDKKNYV
Experiment: FACS saturation binding on HT-1080/hCLDN-5, one-site fit; Lot 2
Give a bare numeral; the unit nM is implied.

Problem: Report Kd for rat anti-CLDN-5 antibody R2 (antibody, rat IgG2a, V domains shown, Hybridoma monoclonal; also called antibody F) VH: QVQLKESGPGLVQPSQTLSLTCTVSGLSLIRNSVSWIRQPPGKGLEWMGVIWSNGGTEYNSTVKSRLSISRDTSKNQVFLKMNSLQTEDSAMFFCARTPDGYYPYFDYWGQGVMVTVSS VL: DIVLTQSPATLSVTPGESVSLSCRASQGISTSIHWYQQKSNESPRLLIRYASQSISRIPSRFSGSGSGTDFTLTINGVESEDLSVYYCQQSYNLPLTFGSGTKLEI please.
Result: 20.7

Problem: Report Kd for rat anti-CLDN-5 antibody R14 (antibody, rat IgG2a, V domains shown, Hybridoma monoclonal; also called antibody K) VH: QVTLKESGPGILQPSHTLSLTCSFSGFSLSTYGMGVSWIRQPSGKGLEWLASIWWNGRTYTNPSLMSRLTVSKDTSTNQAFLRVTSVETADTATYYCAHTPYDYSNLGWFTYWGQGTLVTVSS VL: DILMTQTPSSQAVSAGEKVTVSCKSSQSLLYSGDQKSYLAWYQQKPGQSPKLLIYLASTRKSGVPDRFIGSGSGTDFTLTISSVQAEDLADYYCQQHYTYPLTFGSGTKLEI please.
Result: 8.42

Problem: Report Kd for mouse anti-CLDN-5 antibody M23 (antibody, mouse IgG2b, V domains shown, Hybridoma monoclonal; also called antibody C) VH: EVQLQQSGPVLVKPGPSVMISCKASGFTFTDYYMHWVKQSHGKSLEWIGLVYPYNGGTDYNQKFKGKATLTVDTSSSTAYMELNSLTSEDSAVYYCARCLYDGLYFYAMDYWGQGTSVTVSS VL: DIVMSQSPSSLAVSAGEKVTMTCKSSQSLLNSRARKNYLAWYQQKAGQSPKLLMYWASTRESGVPDRFTASGSGTDFTLTISSVQAEDLAVFYCKQSYNLPWTFGGGTKLEIKR please.
Result: 2.78
